test system: 1516 (donor line of iPSC-derived cardiomyocytes); experiment: POD (EC10) for decrease in total cell number (cytotoxicity) vs vehicle; higher = less potent (higher point of departure); settings: exposure time: 90 min
Field: POD vs vehicle. Provide a value for each of the molecules that follow.

Here's what some known entries look like.
>  <molecule>
O=C(CC(=O)C(F)(F)C(F)(F)F)C(F)(F)F

>  <target-or-system>
1516

>  <POD vs vehicle>
74.4 µM

$$$$
>  <molecule>
O=S(=O)(OCC(F)(F)F)C(F)(F)C(F)(F)C(F)(F)C(F)(F)F [2,2,2-Trifluoroethyl_perfluorobutanesulfonate]

>  <target-or-system>
1516

>  <POD vs vehicle>
> 100 µM

$$$$
>  <molecule>
O=S(=O)(O)CCC(F)(F)C(F)(F)C(F)(F)C(F)(F)C(F)(F)C(F)(F)F

>  <target-or-system>
1516

>  <POD vs vehicle>
> 100 µM

$$$$

# input for lookup
Supply recorded POD vs vehicle for NC(=O)C(F)(F)C(F)(F)C(F)(F)C(F)F here.
> 100 µM

###

test system: 1518 (donor line of iPSC-derived cardiomyocytes); assay: POD (EC05) for decrease in beat frequency (negative chronotrope) vs vehicle; higher = less potent (higher point of departure); settings: exposure time: 90 min
assay-readout: POD vs vehicle

>  <compound>
O=C(O)CCC(F)(F)C(F)(F)C(F)(F)C(F)(F)C(F)(F)C(F)(F)C(F)(F)F

>  <POD vs vehicle>
> 100 µM

$$$$
>  <compound>
CN(CCO)S(=O)(=O)C(F)(F)C(F)(F)C(F)(F)C(F)(F)C(F)(F)C(F)(F)C(F)(F)C(F)(F)F [N-Methyl-N-(2-hydroxyethyl)perfluorooctanesulfonamide]

>  <POD vs vehicle>
> 100 µM

$$$$
>  <compound>
NC(=O)C(F)(F)C(F)(F)C(F)(F)C(F)(F)C(N)=O [Octafluoroadipamide]

>  <POD vs vehicle>
> 100 µM

$$$$
>  <compound>
NS(=O)(=O)C(F)(F)C(F)(F)C(F)(F)C(F)(F)C(F)(F)C(F)(F)F [Perfluorohexanesulfonamide]

>  <POD vs vehicle>
32.8 µM

$$$$
>  <compound>
O=S(=O)(O)CCC(F)(F)C(F)(F)C(F)(F)C(F)(F)C(F)(F)C(F)(F)C(F)(F)C(F)(F)F

>  <POD vs vehicle>
65.7 µM

$$$$
>  <compound>
O=C(O)C(F)(F)C(F)(F)C(F)(F)C(F)(F)C(F)(F)C(F)(F)C(F)(F)C(F)(F)F

>  <POD vs vehicle>
51.1 µM

$$$$

Dear reader, for each entry below, please note its POD vs vehicle.
1. OCC(O)CC(F)(F)C(F)(F)C(F)(F)C(F)(F)C(F)(F)C(F)(F)C(F)(F)C(F)(F)F (centres undefined)
2. OCC(F)(F)C(F)(F)C(F)(F)C(F)(F)C(F)(F)C(F)F
3. O=C([O-])C(F)(F)C(F)(F)C(F)(F)C(F)(F)C(F)(F)C(F)(F)C(F)(F)F.[NH4+] [Ammonium_perfluorooctanoate]
4. O=S(=O)(O)C(F)(F)C(F)(F)C(F)(F)C(F)(F)C(F)(F)C(F)(F)F

1: > 100 µM; 2: 14.9 µM; 3: 87.3 µM; 4: > 100 µM

###

tested on: 11235 (donor line of iPSC-derived cardiomyocytes); assay: POD (EC95) for loss of peak frequency (asystole) vs vehicle; higher = less potent (higher point of departure); settings: exposure time: 90 min
Field: POD vs vehicle. Provide a value for each of the molecules that follow.

Here's what some known entries look like.
>  <molecule>
OCC(F)(F)C(F)(F)C(F)(F)CO

>  <target-or-system>
11235

>  <recorded-result>
> 100 µM

$$$$
>  <molecule>
O=C([O-])C(F)(F)C(F)(F)C(F)(F)C(F)(F)C(F)(F)C(F)(F)C(F)(F)F.[NH4+] [Ammonium_perfluorooctanoate]

>  <target-or-system>
11235

>  <recorded-result>
72.4 µM

$$$$

# input for lookup
Supply recorded POD vs vehicle for O=C(O)C=C(C(F)(F)F)C(F)(F)F here.
> 100 µM
